Target sequence: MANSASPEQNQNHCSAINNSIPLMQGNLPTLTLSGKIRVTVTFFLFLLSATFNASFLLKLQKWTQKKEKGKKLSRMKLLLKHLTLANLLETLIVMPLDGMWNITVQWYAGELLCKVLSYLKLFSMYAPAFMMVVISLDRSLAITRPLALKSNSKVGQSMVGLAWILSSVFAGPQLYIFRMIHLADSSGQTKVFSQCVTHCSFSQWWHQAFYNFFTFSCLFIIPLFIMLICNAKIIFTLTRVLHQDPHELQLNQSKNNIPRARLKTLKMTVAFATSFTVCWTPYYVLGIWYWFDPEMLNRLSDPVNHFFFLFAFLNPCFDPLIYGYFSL
readout_label: Ki (nM)

| chemical_smiles | unit_of_measure | observed_value |
| --- | --- | --- |
| Cc1c(-c2ccccc2F)c(=O)n(C[C@H](N)c2ccccc2)c(=O)n1CC1CCCCC1 | nM | 200 |
| Cc1c(-c2ccccc2F)c(=O)n(C[C@H](N)c2ccccc2)c(=O)n1Cc1ccccc1C(F)(F)F | nM | 4 |

1. Cc1c(-c2ccccc2F)c(=O)n(C[C@H](N)c2ccccc2)c(=O)n1Cc1cccnc1
2. CCCCCn1c(C)c(-c2ccccc2F)c(=O)n(C[C@H](N)c2ccccc2)c1=O
Consider 1 and 2 . Which of these has its Ki at a higher number? Write down the label attached to your selection.
1
